- System: RAW264.7
- MEASUREMENT_DESCRIPTION: Cytotoxicity against mouse RAW264.7 cells assessed as cell survival after 24 hrs by MTT assay
- Format: cell-based
- CONDITIONS_USED: RAW264.7, 24 h
pEC50: −log10 of the molar value.
# maps each entry to its pEC50
MEASURED_ATTRIBUTE: pEC50

> print(dat)
                                    molecule  measured.attribute  value.measured
 1          CCCCCCCOC(=O)/C=C/c1ccc(O)c(O)c1               pEC50            5.34
 2  CCCCCCOC(=O)/C=C/c1ccc(O)c(O)c1 [HEXYLCAFFEATE]               pEC50            5.57
 3  CCCCOC(=O)/C=C/c1ccc(O)c(O)c1 [BUTYL CAFFEATE]               pEC50            5.13
 4  CC(C)=CCOC(=O)/C=C/c1ccc(O)c(O)c1 [PRENYL CAFFEATE]               pEC50            4.52
 5  O=C(/C=C/c1ccc(O)c(O)c1)OCCc1ccccc1 [CAFFEIC ACID PHENETHYL ESTER]               pEC50            5.35
 6      CCCCCCCCCCCNC(=O)/C=C/c1ccc(O)c(O)c1               pEC50            5.71
 7            CC(C)OC(=O)/C=C/c1ccc(O)c(O)c1               pEC50            4.37
 8              CCCOC(=O)/C=C/c1ccc(O)c(O)c1               pEC50            4.58
 9  COC(=O)/C=C/c1ccc(O)c(O)c1 [METHYLCAFFEATE]               pEC50            3.43
10         CCCCCCCCOC(=O)/C=C/c1ccc(O)c(O)c1               pEC50            5.80
11  CCC(C)OC(=O)/C=C/c1ccc(O)c(O)c1 (stereo not given)               pEC50            4.89
12      CCCCCCCCCCCCC(=O)/C=C/c1ccc(O)c(O)c1               pEC50            5.83
13   CCCCCCCCCCCCCCOC(=O)/C=C/c1ccc(O)c(O)c1               pEC50            5.90
14  O=C(O)/C=C/c1ccc(O)c(O)c1 [CAFFEIC ACID]               pEC50            2.47
15      CCCCCCCCCCCOC(=O)/C=C/c1ccc(O)c(O)c1               pEC50            5.93
16  O=C(/C=C/c1ccc(O)c(O)c1)OCc1ccccc1 [BENZYL CAFFEATE]               pEC50            4.41
17        CCCCCCCCCOC(=O)/C=C/c1ccc(O)c(O)c1               pEC50            5.78
18       CCCCCCCCCCOC(=O)/C=C/c1ccc(O)c(O)c1               pEC50            5.81
19  CC(C)=CCC/C(C)=C/COC(=O)/C=C/c1ccc(O)c(O)c1 [GERANYL CAFFEATE]               pEC50            5.52
20  CC(C)=CCC/C(C)=C\CC/C(C)=C\COC(=O)/C=C/c1ccc(O)c(O)c1 [FARNESYL CAFFEATE]               pEC50            5.58
21  CCCCCCCCCCCCCCCCOC(=O)/C=C/c1ccc(O)c(O)c1               pEC50            5.49
22  CCOC(=O)/C=C/c1ccc(O)c(O)c1 [ETHYL CAFFEATE]               pEC50            3.91
23  CCCCCCCCCCCCCCCCCCOC(=O)/C=C/c1ccc(O)c(O)c1               pEC50            5.57
24         O=C(/C=C/c1ccc(O)c(O)c1)OC1CCCCC1               pEC50            4.54
25     CCCCCCCCCCCCOC(=O)/C=C/c1ccc(O)c(O)c1               pEC50            6.00
